system: HepG2 viability, CellTiter-Glo ATP luminescence, 72 h; assay: viability loss in human hepatoma cells – cell-based, CellTiter-Glo luminescence, cherry-pick, set 2, cytotoxicity control, dose response (AID 743395)
Measured AC35, listed per entry.

stdin: Need AC35, item `COc1ccc(Nc2nc3cc(-c4sccc4C)sc3c(=O)n2C)cc1OC`
stdout: 5.88 µM

stdin: Look up AC35: CCN(CC)C(=O)c1oc2ccc(S(=O)(=O)N3CC(C)CC(C)C3)cc2c1C (stereo not given)
stdout: 12.9 µM

* * *

test system: HepG2 viability, CellTiter-Glo ATP luminescence, 72 h; assay: viability loss in human hepatoma cells – cell-based, CellTiter-Glo luminescence, cherry-pick, set 2, cytotoxicity control, dose response (AID 743395)
reported endpoint: AC35

1) COc1ccc(/C(C)=N/NC(=O)c2cccc(S(=O)(=O)N3CCCC3)c2)c(O)c1 ... 0.944 µM
2) CCN(CC)c1ccc(/C=N/NC(=O)c2cnccn2)c(O)c1 ... 1.61 µM
3) C1CCC(C(CC2CCCCN2)C2CCCCC2)CC1 (configuration not stated) ... 6.26 µM
4) Oc1ccc2ccccc2c1/C=C/c1ccc2c(Br)cc(Br)c(O)c2n1 ... 9.42 µM

stdin: Need AC35, item `CCOC(=O)c1c(C)[nH]c(C(=O)N/N=C\c2ccccc2O)c1C`
stdout: 2.34 µM

stdin: Returns the measured AC35 for the input compound. Input: `COC(=O)c1ccc(S(=O)(=O)N2CCc3ccccc32)cc1`
stdout: 16.1 µM

stdin: Tell me the measured AC35 of `O=C(Nc1cccc(C2=NCCN2)c1)Nc1cccc(C2=NCCN2)c1` , please.
stdout: 5.69 µM

stdin: Which AC35 is reported for this compound? `C[C@@H]1CN([C@@H](C)CO)C(=O)Cc2cc(N(C)C)ccc2O[C@@H]1CN(C)Cc1ccc(C(=O)Nc2ccccc2N)cc1`
stdout: 11.5 µM

stdin: I'd like to know its AC35. The compound in question is `Cc1ccc(C)c(CSc2nc3[nH]ncc3c(=O)[nH]2)c1`
stdout: 5.46 µM

stdin: Entry under review: `COc1cccc(C(=O)Nc2sc3c(c2C#N)CCN(C(C)=O)C3)c1` . Reported AC35?
stdout: 11.6 µM

stdin: # AC35 lookup, item `Cn1cccc1/C=C1\SC(=Nc2cccc(O)c2)NC1=O`
stdout: 14.2 µM

stdin: Need AC35, item `C[C@H]1CCC/C=C/[C@@H]2C[C@H](O)C[C@H]2[C@H](O)/C=C/C(=O)O1`
stdout: 0.115 µM

stdin: What does the record list as AC35 for `Cc1cc(C(=O)N/N=C/c2ccc(N(C)C)cc2)c2ccccc2n1` ?
stdout: 8.84 µM

stdin: So what's the measured AC35 for this one? `COc1ccccc1NC(=O)CSc1ccc(-c2ccccn2)nn1`
stdout: 20.4 µM

* * *

Listing of entries alongside the reported AC35.
system: HepG2 viability, CellTiter-Glo ATP luminescence, 72 h; assay: viability loss in human hepatoma cells – cell-based, CellTiter-Glo luminescence, cherry-pick, set 2, cytotoxicity control, dose response (AID 743395)

Past entries and their recorded results:
1. COc1ccc(C2c3ccc4ccccc4c3Oc3ncn(CCCO)c(=N)c32)cc1OC (stereo unspecified) ... 18.7 µM
2. CCCNC(=O)c1ccc2c(=O)c(O)c(-c3cccc(Br)c3)[nH]c2c1 ... 4.65 µM
3. COc1ccc(CN(C)C[C@H]2OCCCC[C@H](C)Oc3ccc(NC(=O)Nc4ccc(C(F)(F)F)cc4)cc3C(=O)N([C@H](C)CO)C[C@H]2C)cc1 ... 10.1 µM

stdin: State the recorded AC35 for this entry: `NS(=O)(=O)c1ccc(CCNc2nn3c(-c4cccc(OC(F)(F)F)c4)cnc3s2)cc1`
stdout: 16.7 µM

stdin: Record request: AC35 value, item `COc1ccc(OC)c(C(=O)Cn2nnc(-c3ccc(N4CCOCC4)cc3)n2)c1`
stdout: 16.6 µM

stdin: Report AC35 for `c1ccc2c(NCCCN3CCOCC3)c3ccccc3nc2c1` please.
stdout: 2.78 µM

stdin: I have this compound here, `COc1cccc2c1C(=O)c1c(O)c3c(c(O)c1C2=O)C[C@](O)(C(C)=O)C[C@H]3O[C@@H]1C[C@@H](N)[C@@H](O)[C@@H](C)O1` , and I need its recorded AC35.
stdout: 0.0738 µM

stdin: Fill in: AC35 of CC(=O)NC(c1ccc(Cl)cc1)c1ccc2cccnc2c1O (stereo unspecified) is ___
stdout: 2.14 µM
